What activity at 30 min was measured for each of the following?
Tested on: UGT2B (heading: UGT2B4)
Assay remarks: in vitro
Experimental context: avian (mallards and a swan), pH 7.4
The answer consists of two parts: a number and, after it, its unit.

INPUT: For CC[C@H]1OC(=O)[C@H](C)[C@@H](O[C@H]2C[C@@](C)(OC)[C@@H](O)[C@H](C)O2)[C@H](C)[C@@H](O[C@@H]2O[C@H](C)C[C@H](N(C)C)[C@H]2O)[C@](C)(OC)C[C@@H](C)C(=O)[C@H](C)[C@@H](O)[C@]1(C)O , what is its reported activity at 30 min?
OUTPUT: 110%

INPUT: Next: Nc1ccc(S(=O)(=O)Nc2ccnn2-c2ccccc2)cc1
OUTPUT: 74%

INPUT: Next: O=c1cc(-c2ccccc2)oc2cc(O)ccc12 [7-Hydroxyflavone]
OUTPUT: 150%

----------
System: CYP3A
Assay remarks: CYP3A catalytic activity (erythromycin N-demethylation) in mouse liver microsomes
Experimental context: mouse liver microsomes; initial screen n=1; compounds without reported IC50 at 5 µM
What Percent control catalytic activity at estimated 2-fold IC50 was measured for each of the following?
Report the figure in percent control without appending any unit label.

INPUT: For COc1cc2c(cc1OC)[C@@H](Cc1ccc(Oc3cc(C[C@@H]4c5cc(OC)c(OC)cc5CCN4C)ccc3O)cc1)N(C)CC2 , what is its reported Percent control catalytic activity at estimated 2-fold IC50?
OUTPUT: 112

INPUT: Next: O=C1c2ccc(O)cc2C(=O)c2ccc(O)cc21 [2,6-Dihydroxyanthraquinone]
OUTPUT: 128

INPUT: Next: C=CCSCC=C [Diallyl sulfide]
OUTPUT: 84

INPUT: Next: CCC(C)n1ncn(-c2ccc(N3CCN(c4ccc(OCC5COC(Cn6cncn6)(c6ccc(Cl)cc6Cl)O5)cc4)CC3)cc2)c1=O (centres unmarked)
OUTPUT: 91

INPUT: Next: CC(C)(C)C(O)/C=C/c1ccc2c(c1)OCO2 (centres unmarked)
OUTPUT: 102

----------
What activity at 30 min was measured for each of the following?
Test system: UGT2B (heading: UGT2B4)
Assay remarks: in vitro
Experimental context: avian (mallards and a swan), pH 7.4
Report the figure in % without appending any unit label.

INPUT: What measured activity at 30 min is associated with CC(=O)O[C@H](CC=C(C)C)C1=CC(=O)c2c(O)ccc(O)c2C1=O [Acetylshikonin] on UGT2B (heading: UGT2B4)?
OUTPUT: 87

INPUT: Next: OC(Cn1cncn1)(Cn1cncn1)c1ccc(F)cc1F [Fluconazole]
OUTPUT: 224

INPUT: Next: CC(C)c1nc(CN(C)C(=O)N[C@@H](CCN2CCOCC2)C(=O)N[C@H](CC[C@H](Cc2ccccc2)NC(=O)OCc2cncs2)Cc2ccccc2)cs1 [Cobicistat]
OUTPUT: 33

INPUT: Next: O=C(/C=C/C=C/c1ccc2c(c1)OCO2)N1CCCCC1 [Piperine]
OUTPUT: 84

INPUT: Next: CC(C)=CCC[C@](C)(O[C@@H]1O[C@H](CO)[C@@H](O)[C@H](O)[C@H]1O)[C@H]1CC[C@]2(C)[C@@H]1[C@H](O)C[C@@H]1[C@@]3(C)CC[C@H](O)C(C)(C)[C@@H]3[C@@H](O)C[C@]12C [Ginsenoside F1]
OUTPUT: 110

INPUT: Next: O=c1cc(-c2ccccc2)oc2cc(O)c(O)c(O)c12 [Baicalein]
OUTPUT: 56

INPUT: Next: C[C@@H]1CC[C@H]2C(C)(C)[C@H]3C[C@@]12CC[C@@]3(C)O [Cedrol]
OUTPUT: 96

INPUT: Next: CCC(C)n1ncn(-c2ccc(N3CCN(c4ccc(OCC5COC(Cn6cncn6)(c6ccc(Cl)cc6Cl)O5)cc4)CC3)cc2)c1=O (centres unmarked) [Itraconazole]
OUTPUT: 118

----------
What Percent control catalytic activity at estimated IC50 was measured for each of the following?
Tested on: CYP3A
Assay remarks: CYP3A catalytic activity (erythromycin N-demethylation) in mouse liver microsomes
Experimental context: mouse liver microsomes; initial screen n=1; compounds without reported IC50 at 1 µM
Structures can show the parent of a compound that is named as a salt.
Report the figure in percent control without appending any unit label.

INPUT: For CC[C@@H]([C@H](C)O)n1ncn(-c2ccc(N3CCN(c4ccc(OC[C@@H]5CO[C@@](Cn6cncn6)(c6ccc(F)cc6F)C5)cc4)CC3)cc2)c1=O , what is its reported Percent control catalytic activity at estimated IC50?
OUTPUT: 101

INPUT: Next: Cc1ccc(-c2c(-c3nn(C)c4ncnc(N5CC[C@H](N6CCCCC6)C5)c34)cnn2C)cc1
OUTPUT: 101

INPUT: Next: CC12CC3CC(C)(C1)CC(N)(C3)C2 [Memantine HCl]
OUTPUT: 104

INPUT: Next: COc1ccc(/C=C/c2cc(O)cc(O)c2)cc1O
OUTPUT: 116

INPUT: Next: O=C([O-])C(O)Cc1ccc(O)c(O)c1.[Na+] (centres unmarked) [Sodium Danshensu]
OUTPUT: 98

INPUT: Next: COc1cc(C2Oc3ccc([C@H]4Oc5cc(O)cc(O)c5C(=O)[C@@H]4O)cc3OC2CO)ccc1O (some centres unmarked)
OUTPUT: 71

INPUT: Next: CCC(C)n1ncn(-c2ccc(N3CCN(c4ccc(OCC5COC(Cn6cncn6)(c6ccc(Cl)cc6Cl)O5)cc4)CC3)cc2)c1=O (centres unmarked)
OUTPUT: 91

INPUT: Next: CCc1oc2ccccc2c1C(=O)c1cc(Br)c(O)c(Br)c1
OUTPUT: 97

INPUT: Next: O=c1cc(-c2ccccc2)oc2cc(O)c(O)c(O)c12
OUTPUT: 114

INPUT: Next: C[C@]12CC[C@H](O)CC1=CC[C@@H]1[C@@H]2CC[C@]2(C)C(n3cnc4ccccc43)=CC[C@@H]12
OUTPUT: 88

INPUT: Next: C/C1=C/CC[C@H](C)C(=O)C[C@@H](C(C)C)C(=O)C1
OUTPUT: 143

INPUT: Next: O=C(O)/C=C/c1ccc(Cn2ccnc2)cc1
OUTPUT: 93

INPUT: Next: CC(C)c1cc(C(C)C)c(CC(=O)NS(=O)(=O)Oc2c(C(C)C)cccc2C(C)C)c(C(C)C)c1
OUTPUT: 91

INPUT: Next: O=[N+]([O-])c1cn(C(c2ccccc2)(c2ccccc2)c2ccccc2)cn1
OUTPUT: 88

INPUT: Next: C[C@@H]1CC[C@H]2C(C)(C)[C@H]3C[C@@]12CC[C@@]3(C)O
OUTPUT: 90

INPUT: Next: O=C1c2ccccc2C(=O)c2c1ccc(O)c2O
OUTPUT: 91

INPUT: Next: CC(C)(C)C(O)/C=C/c1ccc2c(c1)OCO2 (centres unmarked)
OUTPUT: 119

----------
Test system: CYP3A
Assay remarks: CYP3A catalytic activity (erythromycin N-demethylation) in mouse liver microsomes
Experimental context: mouse liver microsomes; initial screen n=1; compounds without reported IC50 at 5 µM
Where a name gives a salt, the structure may show the parent alone.
What Percent control catalytic activity at estimated 2-fold IC50 was measured for each of the following?
The answer consists of two parts: a number and, after it, its unit.

INPUT: For CCc1oc2ccccc2c1C(=O)c1cc(Br)c(O)c(Br)c1 [Benzbromarone] , what is its reported Percent control catalytic activity at estimated 2-fold IC50?
OUTPUT: 96 percent control

INPUT: Next: O=[N+]([O-])c1cn(C(c2ccccc2)(c2ccccc2)c2ccccc2)cn1 [CDD3505]
OUTPUT: 89 percent control

INPUT: Next: CC(=O)O[C@H](CC=C(C)C)C1=CC(=O)c2c(O)ccc(O)c2C1=O [Acetylshikonin]
OUTPUT: 93 percent control

INPUT: Next: O=C(/C=C/C=C/c1ccc2c(c1)OCO2)N1CCCCC1 [Piperine]
OUTPUT: 107 percent control

INPUT: Next: COc1cc2c(=O)c3c(O)c([C@@H]4O[C@H](CO[C@@H]5OC[C@](O)(CO)[C@H]5O)[C@@H](O)[C@H](O)[C@H]4O)c(O)cc3oc2cc1O [Polygalaxanthone III]
OUTPUT: 94 percent control

INPUT: Next: C[C@]12CC[C@H](O)CC1=CC[C@@H]1[C@@H]2CC[C@]2(C)C(n3cnc4ccccc43)=CC[C@@H]12 [Galeterone]
OUTPUT: 86 percent control

INPUT: Next: C[C@@H]1O[C@@H](O[C@H]2[C@H](Oc3cc(O)c(C(=O)CCc4ccc(O)cc4)c(O)c3)O[C@H](CO)[C@@H](O)[C@@H]2O)[C@H](O)[C@H](O)[C@H]1O [Naringin Dihydrochalcone]
OUTPUT: 96 percent control

INPUT: Next: O=c1cc(-c2ccccc2)oc2cc(O)ccc12 [7-Hydroxyflavone]
OUTPUT: 97 percent control

INPUT: Next: CC[C@@H]([C@H](C)O)n1ncn(-c2ccc(N3CCN(c4ccc(OC[C@@H]5CO[C@@](Cn6cncn6)(c6ccc(F)cc6F)C5)cc4)CC3)cc2)c1=O [Posaconazole]
OUTPUT: 74 percent control

INPUT: Next: C/C1=C/CC[C@H](C)C(=O)C[C@@H](C(C)C)C(=O)C1 [Curdione]
OUTPUT: 134 percent control

INPUT: Next: Nc1ccc(S(=O)(=O)Nc2ccnn2-c2ccccc2)cc1 [Sulfaphenazole]
OUTPUT: 100 percent control

INPUT: Next: CC(C)c1cc(C(C)C)c(CC(=O)NS(=O)(=O)Oc2c(C(C)C)cccc2C(C)C)c(C(C)C)c1 [Avasimibe]
OUTPUT: 92 percent control

INPUT: Next: Cc1ccc(-c2c(-c3nn(C)c4ncnc(N5CC[C@H](N6CCCCC6)C5)c34)cnn2C)cc1 [PF-4981517]
OUTPUT: 110 percent control

INPUT: Next: CC(=O)c1ccccc1O [2'-Hydroxyacetophenone]
OUTPUT: 80 percent control

INPUT: Next: C[C@@H]1CC[C@H]2C(C)(C)[C@H]3C[C@@]12CC[C@@]3(C)O [Cedrol]
OUTPUT: 62 percent control

INPUT: Next: CCc1ccc(CCOc2ccc(CC3SC(=O)NC3=O)cc2)nc1 (stereo not shown) [Pioglitazone HCl]
OUTPUT: 100 percent control
